# maps each entry to its inhibition at 10 µM
Biological target: human DGAT2 (Homo sapiens, UniProt Q96PD7)
Construct: made in house; host or cells: sf9 insect cells
Sequence (Q96PD7 whole entry): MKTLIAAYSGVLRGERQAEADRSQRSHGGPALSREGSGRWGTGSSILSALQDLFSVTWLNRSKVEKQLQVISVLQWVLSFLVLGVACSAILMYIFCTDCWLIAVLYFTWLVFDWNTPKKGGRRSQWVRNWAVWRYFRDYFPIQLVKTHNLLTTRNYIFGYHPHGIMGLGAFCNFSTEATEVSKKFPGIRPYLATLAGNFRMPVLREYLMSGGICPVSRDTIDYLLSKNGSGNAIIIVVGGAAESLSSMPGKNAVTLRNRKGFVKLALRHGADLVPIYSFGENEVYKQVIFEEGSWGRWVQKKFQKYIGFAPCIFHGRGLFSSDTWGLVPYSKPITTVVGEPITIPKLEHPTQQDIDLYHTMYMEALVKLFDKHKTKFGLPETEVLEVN
Assay: DGAT enzyme inhibition test, hDGAT2 enzyme from sf9 insect cells (DGAT2 selectivity)
Type: biochemical
Conditions: 10 μM; enzyme from sf9 cells overexpressing hDGAT2; read-out: hDGAT-2 (sf9) inhibition rate(%)at 10 μM
The response must be a number in % with no trailing unit.

// below: answered compounds
CC(C)(C)OC(=O)n1cc(/C=C/C(=O)NNC(=O)c2ccccc2)c2ccccc21; 3.7
CC(C)N(NC(=O)c1ccccc1)C(=O)/C=C/c1cn(C(=O)c2ccccc2)c2ccccc12; 11
CC(C)N(NC(=O)c1ccccc1)C(=O)CCc1cn(Cc2ccccc2)c2ccccc12; 1.3

Pending compound:
Input line: Suppose we examine the compound `CC(C)N(NC(=O)c1cccc(F)c1)C(=O)/C=C/c1cn(C)c2ccccc12` ; what inhibition at 10 µM value has been reported?
Output line: 2.2

The values you see were collected from patent US8906952B2.
